Cited source for all entries: paper PMC10786891

Measured pKd, listed per entry.
- target system: T1, EsCas13d, nuclease-dead (Eubacterium siraeum, UniProt B0MS50, R295A;H300A;R849A;H854A)
- T1 sequence: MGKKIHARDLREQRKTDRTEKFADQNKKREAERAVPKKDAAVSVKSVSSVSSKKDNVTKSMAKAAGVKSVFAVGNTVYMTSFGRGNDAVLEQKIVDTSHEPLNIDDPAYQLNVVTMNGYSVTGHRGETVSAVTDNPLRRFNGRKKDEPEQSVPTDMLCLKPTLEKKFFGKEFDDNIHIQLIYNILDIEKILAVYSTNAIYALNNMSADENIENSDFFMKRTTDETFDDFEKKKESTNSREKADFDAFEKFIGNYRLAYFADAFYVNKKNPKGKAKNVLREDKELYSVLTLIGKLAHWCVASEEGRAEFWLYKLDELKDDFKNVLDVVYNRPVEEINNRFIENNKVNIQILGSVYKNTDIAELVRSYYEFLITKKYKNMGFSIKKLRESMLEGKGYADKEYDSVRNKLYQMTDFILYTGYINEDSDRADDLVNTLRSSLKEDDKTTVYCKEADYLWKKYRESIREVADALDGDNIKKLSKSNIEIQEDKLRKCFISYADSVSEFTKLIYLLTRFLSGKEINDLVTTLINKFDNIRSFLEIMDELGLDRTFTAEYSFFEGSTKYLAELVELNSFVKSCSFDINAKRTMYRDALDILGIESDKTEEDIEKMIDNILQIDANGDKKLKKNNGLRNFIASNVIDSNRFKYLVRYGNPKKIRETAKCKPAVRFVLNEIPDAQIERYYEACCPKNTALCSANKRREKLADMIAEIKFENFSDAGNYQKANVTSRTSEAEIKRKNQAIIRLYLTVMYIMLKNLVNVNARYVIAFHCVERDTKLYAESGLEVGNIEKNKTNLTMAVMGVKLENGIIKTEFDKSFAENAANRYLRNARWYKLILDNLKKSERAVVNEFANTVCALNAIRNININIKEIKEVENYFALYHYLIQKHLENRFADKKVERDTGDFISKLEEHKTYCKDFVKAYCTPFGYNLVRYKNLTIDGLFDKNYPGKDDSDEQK
- assay text: crRNA (strand 1, pre-loaded); Mg2+; 40 mM Tris-HCl pH 7.5, 150 mM NaCl, 6 mM MgCl2, 1 mM DTT, 0.1% Tween-20, 0.2 mg/ml BSA; 25 C; 10 min per concentration, then washed
- condition details: tags: His6-TwinStrep-SUMO cleaved; N-terminal SNAP kept (SNAP-Surface 488); label: 3' end held by stalled T7 RNA polymerase
pKd: −log10 of the molar value.
result type: pKd

binder="target 2 MT 5'PFS UUA 3'PFS ACC (mixed) RNA 1: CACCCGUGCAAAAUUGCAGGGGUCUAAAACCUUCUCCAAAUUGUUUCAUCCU RNA 2: GGGAAUGGAUCCACAUCUACGAAUUCUUAAGGAUGAAACAAUUUGGAGAAGACCAGAUCGGAAGAGCACACGU" measured_number=7.35
binder="target 1 MT 5'PFS AGA 3'PFS UGA (mixed) RNA 1: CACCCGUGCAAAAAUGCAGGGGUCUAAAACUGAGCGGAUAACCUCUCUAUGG RNA 2: GGGAAUGGAUCCACAUCUACGAAUUCAGACCAUAGAGAGGUUAUCCGCUCAUGAAGAUCGGAAGAGCACACGU" measured_number=7.05
binder="target 1 MT 5'PFS CUG 3'PFS AGG (mixed) RNA 1: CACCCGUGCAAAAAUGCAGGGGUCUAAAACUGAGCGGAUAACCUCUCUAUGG RNA 2: GGGAAUGGAUCCACAUCUACGAAUUCCUGCCAUAGAGAGGUUAUCCGCUCAAGGAGAUCGGAAGAGCACACGU" measured_number=7.18
binder="target 1 insU 3' of 18,insU 3' of 4 (mixed) RNA 1: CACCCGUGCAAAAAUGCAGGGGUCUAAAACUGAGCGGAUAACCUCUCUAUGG RNA 2: GGGAAUGGAUCCACAUCUACGAAUUCGUACCAUAUGAGAGGUUAUCCGCUUCACCGAGAUCGGAAGAGCACACGU" measured_number=7.69
binder="target 1 insG 3' of 22,insU 3' of 18 (mixed) RNA 1: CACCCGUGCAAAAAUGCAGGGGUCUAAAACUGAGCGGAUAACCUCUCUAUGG RNA 2: GGGAAUGGAUCCACAUCUACGAAUUCGUACGCAUAUGAGAGGUUAUCCGCUCACCGAGAUCGGAAGAGCACACGU" measured_number=7.13
binder="target 1 C4G,U8A (mixed) RNA 1: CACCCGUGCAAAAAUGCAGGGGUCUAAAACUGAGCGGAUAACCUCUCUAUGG RNA 2: GGGAAUGGAUCCACAUCUACGAAUUCGUACCAUAGAGAGGUUAACCGGUCACCGAGAUCGGAAGAGCACACGU" measured_number=8.13
binder="target 1 U8G,G12A (mixed) RNA 1: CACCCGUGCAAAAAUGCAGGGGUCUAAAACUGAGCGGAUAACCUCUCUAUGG RNA 2: GGGAAUGGAUCCACAUCUACGAAUUCGUACCAUAGAGAGAUUAGCCGCUCACCGAGAUCGGAAGAGCACACGU" measured_number=7.89
binder="target 1 A9G,C21A (mixed) RNA 1: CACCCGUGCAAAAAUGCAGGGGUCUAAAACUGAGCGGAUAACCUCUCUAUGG RNA 2: GGGAAUGGAUCCACAUCUACGAAUUCGUACAAUAGAGAGGUUGUCCGCUCACCGAGAUCGGAAGAGCACACGU" measured_number=7.44
binder="target 2 MT 5'PFS GAU 3'PFS AAU (mixed) RNA 1: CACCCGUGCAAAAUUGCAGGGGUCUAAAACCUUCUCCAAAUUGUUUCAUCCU RNA 2: GGGAAUGGAUCCACAUCUACGAAUUCGAUAGGAUGAAACAAUUUGGAGAAGAAUAGAUCGGAAGAGCACACGU" measured_number=8.04
binder="target 2 MT 5'PFS UCG 3'PFS CUA (mixed) RNA 1: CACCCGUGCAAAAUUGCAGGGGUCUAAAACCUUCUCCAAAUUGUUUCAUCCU RNA 2: GGGAAUGGAUCCACAUCUACGAAUUCUCGAGGAUGAAACAAUUUGGAGAAGCUAAGAUCGGAAGAGCACACGU" measured_number=7.49
binder="target 2 MT 5'PFS AGC 3'PFS CCA (mixed) RNA 1: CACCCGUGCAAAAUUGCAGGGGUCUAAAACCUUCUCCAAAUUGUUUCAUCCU RNA 2: GGGAAUGGAUCCACAUCUACGAAUUCAGCAGGAUGAAACAAUUUGGAGAAGCCAAGAUCGGAAGAGCACACGU" measured_number=7.11
binder="target 1 A1C,U8G (mixed) RNA 1: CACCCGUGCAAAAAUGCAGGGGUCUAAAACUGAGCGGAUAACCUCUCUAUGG RNA 2: GGGAAUGGAUCCACAUCUACGAAUUCGUACCAUAGAGAGGUUAGCCGCUCCCCGAGAUCGGAAGAGCACACGU" measured_number=7.65
binder="target 2 MT 5'PFS AGA 3'PFS CAU (mixed) RNA 1: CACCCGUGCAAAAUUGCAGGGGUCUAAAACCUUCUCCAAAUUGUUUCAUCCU RNA 2: GGGAAUGGAUCCACAUCUACGAAUUCAGAAGGAUGAAACAAUUUGGAGAAGCAUAGAUCGGAAGAGCACACGU" measured_number=8.10
binder="target 1 insC 3' of 10,insC 3' of 1 (mixed) RNA 1: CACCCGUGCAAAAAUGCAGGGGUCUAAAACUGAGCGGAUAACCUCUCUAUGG RNA 2: GGGAAUGGAUCCACAUCUACGAAUUCGUACCAUAGAGAGGUUCAUCCGCUCACCCGAGAUCGGAAGAGCACACGU" measured_number=7.87
